Test system: HeLa
experiment.notes: Primary qHTS to identify gynecologic anti-cancer compounds using libraries of approved drugs and bioactive compounds (AID 1345084); note: % is set by controls: 0 for no effect and ±100 for the full control effect; nearly all actives have a fitted effect of over 55% in size
stated.conditions: Gynecologic cancer cell panel viability, ATPlite luminescence, 48 h; series mostly up to 57.5 µM
Records with an inconclusive call do not appear. Activity calls are given as the source filed them. Calls come from the whole dose curve; as a rule, active = well fitted cell-killing curve with a large enough effect; inconclusive = small, poorly fitted or top-dose-only effect, or effect the other way; inactive = flat fitted curve, though single readings scatter.
reported.endpoint: activity change, negative = cytotoxicity

Below: 8 compounds and their reported activity change, negative = cytotoxicity.
compound	activity change, negative = cytotoxicity
O=C(Cn1c2ccccc2c2nc3n(c(=O)c21)CCS3)N1CCCC1	inactive
COc1cc(O)cc2c1C(=O)OC(C)CCCCCCC2 (stereo not drawn)	inactive
CC(=O)OCC(Cc1ccccc1)NC(=O)C(Cc1ccccc1)NC(=O)c1ccccc1 (stereo not drawn)	inactive
CC1CC(=O)C2=C(O1)OC1(C)CCC3C(C)(C)C4OC4C(=O)C3(C)C1C2 (stereo not drawn)	inactive
O=C(NC/C=C/CN1CCN(c2cccc(Cl)c2Cl)CC1)c1ccc(-c2ccccn2)cc1	inactive
C=C1CCc2occ(C)c2[C@H]2[C@H]1[C@@]13O[C@@]1(C[C@@H](C)[C@H]3OC(C)=O)[C@H]1O[C@@]21C	inactive
Cc1c(O)cc2c(c1O)COC1(O)CCCOC21 (stereo not drawn)	inactive
CCC12CCCN3CCc4c(n(c5ccccc45)C(O)C1)C32 (stereo not drawn)	inactive

Quick one: activity change, negative = cytotoxicity for `C=C1CC[C@@H]2[C@](C)(CO)[C@H](O[C@@H]3O[C@H](CO)[C@@H](O)[C@H](O)[C@H]3O)CC[C@@]2(C)[C@@H]1C/C=C1/C(=O)OC[C@H]1O` ?
inactive

Also CC1(C)CC[C@]2(C(=O)O[C@@H]3O[C@H](CO)[C@@H](O)[C@H](O)[C@H]3O)CC[C@]3(C)C(=CCC4[C@@]5(C)CC[C@H](O[C@@H]6O[C@H](C(=O)O)[C@@H](O)[C@H](O)[C@H]6OC6OC(CO)C(O)C(O)C6O)C(C)(C)C5CC[C@]43C)[C@@H]2C1 (stereo partly drawn) , if possible.
8.29% [at 11.6 µM] (inactive)

Also `COCCN1CCC(C(=O)NO)(S(=O)(=O)c2ccc(Oc3ccc(OC(F)(F)F)cc3)cc2)CC1` , if possible.
inactive

Also O=C(Nc1ccccc1)Nc1ccc(-c2ccc(C(=O)C3CCCC3C(=O)O)cc2)cc1 (stereo not drawn) , if possible.
inactive

Also `COc1cc2nc(=NC(=O)c3cccnc3)n3c(c2cc1OC)NCC3` , if possible.
inactive

Also C=C1CCC2C(C)(C(=O)OC)CCCC2(C)C1CCC1=CCOC1=O (stereo not drawn) , if possible.
inactive

---

System: NIH3T3
experiment.notes: qHTS assay to identify novel small-molecules to repurpose for Merkel cell carcinoma treatment (AID 1296009); note: nearly all actives have a fitted effect of over 60% in size
stated.conditions: MCC and control cell lines, CellTiter-Glo viability, 72 h; at 44.8 µM (top of the series) unless noted
Records with an inconclusive call do not appear. Active and inactive are the calls of the source. Calls follow the shape of the dose curve; as a rule, active = well fitted inhibition curve with a large enough effect; inconclusive = small, poorly fitted or top-dose-only effect; inactive = flat fitted curve, though single readings scatter.
reported.endpoint: outcome

Below: 8 compounds and their reported outcome.
compound	outcome
COc1ccc2[nH]c(S(=O)Cc3ncc(C)c(OC)c3C)nc2c1 (centres undefined)	inactive
C=C1C(O)CCC2(C)CC3(OC)OC(=O)C(C)=C3CC12 (centres undefined)	inactive
C[C@@H]1O[C@@H](O[C@H]2[C@@H]3C=CO[C@@H](O[C@@H]4O[C@H](CO)[C@@H](O)[C@H](O)[C@H]4O)[C@@H]3[C@@]3(CO)O[C@@H]23)[C@H](OC(=O)/C=C/c2ccc(O)cc2)[C@H](O)[C@H]1O	inactive [at 17.4 µM]
Nc1ccc(-n2nc(C(F)(F)F)cc2C(F)(F)F)cc1	inactive
COc1cc2c(cc1O)CC(O)(CO)C(CO)C2c1ccc(OC2OC(CO)C(O)C(O)C2O)c(OC)c1 (centres undefined)	inactive [at 17.4 µM]
CC[C@H](NC(=O)c1c(O)c(-c2ccccc2)nc2ccccc12)c1ccccc1	inactive
CC1=CC(=O)C(=C(C)C)CC2C(C)(O)CCC12O (centres undefined)	inactive
COc1c(O)cc2c(c1O)C(=O)O[C@H](C)[C@H]2O	inactive

Then there is this compound:
Quick one: outcome for C=CC(C)(CCC=C(C)C)O[C@@H]1O[C@H](CO)[C@@H](O)[C@H](O)[C@H]1O (some centres undefined) ?
inactive

---

Tested on: CASKI
experiment.notes: Primary qHTS to identify gynecologic anti-cancer compounds using libraries of approved drugs and bioactive compounds (AID 1345084); note: % is set by controls: 0 for no effect and ±100 for the full control effect; nearly all actives have a fitted effect of over 55% in size
stated.conditions: Gynecologic cancer cell panel viability, ATPlite luminescence, 48 h; series mostly up to 57.5 µM
Results filed as inconclusive are left out. Activity calls are given as the source filed them. Calls follow the shape of the dose curve; as a rule, active = well fitted cell-killing curve with a large enough effect; inconclusive = small, poorly fitted or top-dose-only effect, or effect the other way; inactive = flat fitted curve, though single readings scatter.
reported.endpoint: activity change, negative = cytotoxicity

Below: 5 compounds and their reported activity change, negative = cytotoxicity.
compound	reported.endpoint	value.reported
CC(=O)O[C@H]1C[C@@H](O)C(C)(C)C2C[C@@H](OC(C)=O)[C@]3(C)C(CC[C@@]4(C)[C@H](c5ccoc5)OC(=O)[C@H]5O[C@]543)[C@]21C (stereo partly specified)	activity change, negative = cytotoxicity	inactive
COc1c2c(c(C)c3c1C(=O)OC3)OC1(C)CC(O)C34OC(O)(CCC3(C)C1C2)OC4(C)C (stereo unspecified)	activity change, negative = cytotoxicity	inactive
CC1(C)CC[C@]2(C(=O)O[C@@H]3O[C@H](CO)[C@@H](O)[C@H](O)[C@H]3O)CC[C@]3(C)C(=CCC4[C@@]5(C)CC[C@H](OC6OC(C(=O)O)C(OC7OC(CO)C(O)C(O)C7O)C(O)C6O)C(C)(C)C5CC[C@]43C)C2C1 (stereo partly specified)	activity change, negative = cytotoxicity	15.2% [at 11.6 µM] (inactive)
COC(=O)[C@H](O)[C@H]1C(C)(C)[C@H](OC(C)=O)[C@@]2(O)C(=O)[C@]1(C)C1CC[C@]3(C)C(CC(=O)O[C@H]3c3ccoc3)[C@]13O[C@@H]32 (stereo partly specified)	activity change, negative = cytotoxicity	inactive
C[C@@]12CC3(S(=O)(=O)O)OC(O1)[C@]1(COC(=O)c4ccccc4)[C@H]3C[C@]21O[C@@H]1O[C@H](CO)[C@@H](O)[C@H](O)[C@H]1O	activity change, negative = cytotoxicity	inactive

Quick one: activity change, negative = cytotoxicity for COc1cc(CC2COC(c3ccc(OC4OC(CO)C(O)C(O)C4O)c(OC)c3)C2CO)ccc1O (stereo unspecified) ?
inactive

---

Test system: KB-3-1
experiment.notes: Cytotoxic Profiling of Annotated Libraries Using Quantitative High-Throughput Screening (AID 1296008); note: nearly all actives have a fitted effect of over 60% in size
stated.conditions: Five cell lines viability, CellTiter-Glo ATP luminescence, 48-72 h
Results filed as inconclusive are left out. Activity calls are given as the source filed them. Calls follow the shape of the dose curve; as a rule, active = well fitted inhibition curve with a large enough effect; inconclusive = small, poorly fitted or top-dose-only effect; inactive = flat fitted curve, though single readings scatter.
reported.endpoint: outcome

molecule	assayed.target	reported.endpoint	value.reported
C[C@@H]1O[C@@H](O[C@H]2[C@H](O[C@H]3[C@H](O[C@H]4CC[C@@]5(C)C(CC[C@]6(C)C5CC=C5[C@@H]7CC(C)(C)CC(=O)[C@]7(C)CC[C@]56C)[C@@]4(C)CO)O[C@H](C(=O)O)[C@@H](O)[C@@H]3O)O[C@H](CO)[C@H](O)[C@@H]2O)[C@H](O)[C@H](O)[C@H]1O (stereo partly drawn)	KB-3-1	outcome	inactive
CC1CCC2(C(=O)O)CCC3(C)C(=CCC4C5(C)C[C@@H](O)[C@@H](O)C(C)(CO)C5CCC43C)C2C1(C)O (stereo partly drawn)	KB-3-1	outcome	inactive
CC(=O)O[C@H]1[C@H](O[C@H]2CC[C@]34C[C@]35CC[C@]3(C)[C@@H]([C@@]6(C)CC[C@@H](C(C)(C)O)O6)[C@@H](O)C[C@@]3(C)[C@@H]5C[C@H](O[C@@H]3O[C@H](CO)[C@@H](O)[C@H](O)[C@H]3O)[C@H]4C2(C)C)OC[C@@H](OC(C)=O)[C@@H]1O	KB-3-1	outcome	inactive

---

Tested on: HaCat
experiment.notes: Cytotoxic Profiling of Annotated Libraries Using Quantitative High-Throughput Screening (AID 1296008); note: nearly all actives have a fitted effect of over 60% in size; for max response: % is set by controls: 0 for no effect and ±100 for the full control effect
stated.conditions: Five cell lines viability, CellTiter-Glo ATP luminescence, 48-72 h; hits give low values
Records with an inconclusive call do not appear.
Some compounds, each annotated with its measured max response.
Output spec: scalar in %, unitless text.

Below: 5 compounds and their reported max response.
compound	assayed.target	max response, %
COc1ccc(/C=C/C(=O)O[C@@H]2[C@@H](OC(C)=O)[C@@H](OC(C)=O)[C@H](O[C@H]3[C@@H]4C=CO[C@@H](O[C@@H]5O[C@H](CO)[C@@H](O)[C@H](O)[C@H]5O)[C@@H]4[C@@]4(CO)O[C@@H]34)O[C@H]2C)cc1	HaCat	0.723
O=C(O)c1ccnc2cc(-c3nc4ccccc4n3CCN3CCCCC3)sc12	HaCat	-0.587
CC1(C)CCCC2(C)c3c4c(c(=O)oc(=O)c3=CCC12)=CCC1C(C)(C)CCCC41C (stereo not drawn)	HaCat	0.0105
O=C(OC[C@H]1O[C@@H](Oc2ccccc2COC(=O)C2(O)C=CCCC2O)[C@H](O)[C@@H](O)[C@@H]1O)c1ccccc1 (stereo partly drawn)	HaCat	3.77
C[C@]12CC/C(=N\OCC(=O)O)C=C1CC[C@@H]1[C@@H]2[C@@H](O)C[C@@]2(C)[C@H]1CC[C@]2(O)C(=O)CO	HaCat	2.89

Item: COc1c2c(c(C)c3c1C(=O)OC3)OC1(C)CC(O)C34OC(OC)(CCC3(C)C1C2)OC4(C)CO (stereo not drawn) Test system: HaCat Read-out: max response Value: ?
2.59

Also N#Cc1ccc(C2CCCc3cncn32)cc1 (stereo not drawn) , if possible.
3.15

Also Cc1ccc2[nH]c(=O)c(C3=NN(C(=O)CCC(=O)O)C(c4ccc(Br)cc4)C3)c(-c3ccccc3)c2c1 (stereo not drawn) , if possible.
-0.37

Also `COc1cc([C@@H](O[C@@H]2O[C@H](CO)[C@@H](O)[C@H](O)[C@H]2O)[C@@H]2CO[C@H](c3ccc(O)c(OC)c3)[C@H]2CO)ccc1O` , if possible.
0.823

Also `CCNC(=O)OC1CCN(c2nncc3cc(OC)c(OC)cc23)CC1` , if possible.
-16.1

Also C=C1C(O)CC2C(C(=O)O)=COC(O[C@@H]3O[C@H](COC(=O)c4ccc(O)cc4)[C@@H](O)[C@H](O)[C@H]3O)C12 (stereo partly drawn) , if possible.
2.09

Also `C=C1CCc2occ(C)c2[C@H]2[C@H]1[C@@]13O[C@@]1(C[C@@H](C)[C@H]3OC(C)=O)[C@H]1O[C@@]21C` , if possible.
-22

Also C=CC(C)(CC/C=C(\C)C(=O)OC)OC1OC(COC(=O)CC(C)(O)CC(=O)O)C(O)C(O)C1O (stereo not drawn) , if possible.
3.32

Also `COc1cc(/C=C/C(=O)O[C@H]2C[C@@H]3C(C(=O)O)=CO[C@@H](O[C@@H]4O[C@H](CO)[C@@H](O)[C@H](O)[C@H]4O)[C@@H]3[C@H]2C)ccc1O` , if possible.
3.27

Also CC(=O)OC1CC2(C)C(CCC(C)C23Cc2c(O)cc4c(c2O3)CNC4=O)C(C)(C)C1O (stereo not drawn) , if possible.
-6.41

Also `Nc1nc(COC(=O)c2ccc([N+](=O)[O-])cc2)nc(Nc2ccccc2)n1` , if possible.
-9.19

Also `Cc1nc2cc(-c3cc(F)cc(C#N)c3)ccc2s1` , if possible.
-10.9

Also Oc1ccc(CC2NCCc3cc(O)c(O)cc32)cc1 (stereo not drawn) , if possible.
1.1

Also CC[C@H]1OC(=O)[C@H](C)[C@@H](O[C@H]2C[C@@](C)(OC)[C@@H](O)[C@H](C)O2)C(C)[C@@H](O[C@@H]2O[C@H](C)C[C@H](N(C)C)[C@H]2O)[C@](C)(O)C[C@@H](C)CN(C)[C@H](C)[C@@H](O)[C@]1(C)O (stereo partly drawn) , if possible.
-11.4

Also `CC(C)CC[C@@H](O)[C@](C)(O)[C@H]1CC[C@@]2(O)C3=CC(=O)[C@@H]4C[C@@H](O)[C@@H](O)C[C@]4(C)[C@H]3CC[C@]12C` , if possible.
4.07

Also `FC(F)(F)Oc1ccc(-c2ccc3nnc(C(F)(F)F)n3c2)cc1` , if possible.
-4.75

Also C/C=C(/C)C(=O)OC1C(OC(C)=O)C23C(O)OC4(CCC5C6(C)CCC(OC7OC(C(=O)O)C(O)C(OC8OC(CO)C(O)C(O)C8OC8OC(C)C(O)C(O)C8OC8OCC(O)C(O)C8O)C7OC7OC(CO)C(O)C(O)C7O)C(C)(C)C6CCC5(C)C4(C)CC2OC(C)=O)C3CC1(C)C (stereo not drawn) , if possible.
1.22

Also C=C1CCC2(OC1)OC1CC3C4CC=C5CC(O)CC(O[C@@H]6OC[C@H](OC(=O)C(O)C(C)CC)[C@H](O)[C@H]6O[C@@H]6O[C@@H](C)[C@H](O)[C@@H](O)[C@H]6O)C5(C)C4CCC3(C)C1C2C (stereo partly drawn) , if possible.
-7.88

Also `CCOc1ncc(S(=O)(=O)N2CCN(CC)CC2)cc1-c1nc2c(CC)n(CCOC)nc2c(=O)[nH]1` , if possible.
2.49

Also `CC1(C)C=Cc2c(ccc3c2N=C2C(C)(C)[C@@H]4C[C@]56CCCN5C(=O)[C@@]4(C[C@]23O)NC6=O)O1` , if possible.
3.57

Also CC1OC(O[C@@H]2[C@@H](O)[C@H](OC(=O)[C@]34CCC(C)(C)C[C@H]3C3=CCC5[C@@]6(C)CC[C@H](O[C@@H]7O[C@H](C(=O)O)[C@@H](O)[C@H](O[C@@H]8OC[C@@H](O)[C@H](O)[C@H]8O)[C@H]7O[C@@H]7O[C@H](CO)[C@H](O)[C@H](O)[C@H]7O)[C@@](C)(C=O)C6CC[C@@]5(C)[C@]3(C)C[C@H]4O)O[C@H](C)[C@@H]2OC2OC(C)C(OC3OCC(O)C(O)C3O)C(O)C2O)C(O)C(O)C1O (stereo partly drawn) , if possible.
-4.11

Also CC1(C)CC[C@]2(C(=O)O)CC[C@]3(C)C(=CCC4[C@@]5(C)C[C@@H](O)[C@H](O)[C@](C)(CO)C5CC[C@]43C)[C@@H]2[C@@H]1O (stereo partly drawn) , if possible.
1.54

Also CC1(C)OC(=O)CC(O)C2(C)C1CC(=O)C1(C)C2C(O)CC2(C)C(c3ccoc3)OC(=O)C3OC321 (stereo not drawn) , if possible.
-9.13
